Just for reference, paper PMC5529566 is where these values come from.

# target entity: H^+,K^+-ATPase Y140I (Sus scrofa, UniProt P19156, Y141I)
# Sequence (P19156 whole entry Y141I): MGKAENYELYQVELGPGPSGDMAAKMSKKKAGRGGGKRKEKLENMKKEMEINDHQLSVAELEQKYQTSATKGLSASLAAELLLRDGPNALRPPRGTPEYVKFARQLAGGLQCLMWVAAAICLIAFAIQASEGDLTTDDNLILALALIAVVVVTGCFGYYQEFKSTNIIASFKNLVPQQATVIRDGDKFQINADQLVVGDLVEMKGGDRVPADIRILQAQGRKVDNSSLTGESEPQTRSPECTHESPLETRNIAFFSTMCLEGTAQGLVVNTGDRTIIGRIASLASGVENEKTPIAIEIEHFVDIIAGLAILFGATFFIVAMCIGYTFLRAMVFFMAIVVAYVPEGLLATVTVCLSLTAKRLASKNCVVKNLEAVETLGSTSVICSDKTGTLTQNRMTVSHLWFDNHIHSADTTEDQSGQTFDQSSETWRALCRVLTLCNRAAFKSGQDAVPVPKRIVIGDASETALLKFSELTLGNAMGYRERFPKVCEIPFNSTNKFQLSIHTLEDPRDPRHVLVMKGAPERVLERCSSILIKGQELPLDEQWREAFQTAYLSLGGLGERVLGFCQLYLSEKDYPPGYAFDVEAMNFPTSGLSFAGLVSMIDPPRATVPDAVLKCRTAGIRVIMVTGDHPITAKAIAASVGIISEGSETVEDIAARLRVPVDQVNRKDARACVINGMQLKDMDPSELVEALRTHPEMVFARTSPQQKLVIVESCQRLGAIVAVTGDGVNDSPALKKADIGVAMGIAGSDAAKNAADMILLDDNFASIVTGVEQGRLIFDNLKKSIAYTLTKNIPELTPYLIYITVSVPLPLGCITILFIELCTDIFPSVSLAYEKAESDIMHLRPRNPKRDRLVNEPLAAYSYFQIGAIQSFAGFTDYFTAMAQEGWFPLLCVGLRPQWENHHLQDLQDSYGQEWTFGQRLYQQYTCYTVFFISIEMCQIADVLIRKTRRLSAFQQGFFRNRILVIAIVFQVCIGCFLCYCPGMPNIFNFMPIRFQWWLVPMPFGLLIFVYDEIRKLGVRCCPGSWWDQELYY
# Sequence (P18434 whole entry partner): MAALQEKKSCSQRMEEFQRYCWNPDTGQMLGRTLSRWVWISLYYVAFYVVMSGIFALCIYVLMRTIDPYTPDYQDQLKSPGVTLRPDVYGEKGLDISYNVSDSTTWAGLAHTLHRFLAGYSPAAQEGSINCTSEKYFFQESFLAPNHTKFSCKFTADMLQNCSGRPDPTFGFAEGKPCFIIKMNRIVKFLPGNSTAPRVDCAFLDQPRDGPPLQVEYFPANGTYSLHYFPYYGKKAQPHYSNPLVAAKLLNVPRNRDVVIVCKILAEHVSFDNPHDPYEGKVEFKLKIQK
# protocol summary: ATPase assay, Y140I mutant
property name: pKi
Give only the number. pKi is defined as minus log10 of concentration in molar units.

Cc1nc2c3c(ccn2c1C)[C@@H](O)[C@H](O)[C@@H](c1ccccc1)N3C [BYK73]
5.40
N#CCc1cnc2c(OCc3ccccc3)cccn12 [SCH-Me^−]
5.30
Cc1cn2cccc(OCc3ccccc3)c2n1 [SCH-CN^−]
5.68

Short answer for Cc1nc2c3c(ccn2c1C)[C@@H](O)[C@H](O)[C@@H](c1ccccc1)N3 [BYK99] : pKi was 8.37
